Taken from the RNAGym collection of RNA variant scans (doi:10.7554/elife.90254).

I'd appreciate it if you could supply self-cleavage values for the items below.
B1: LINE1-full (parent)
chain: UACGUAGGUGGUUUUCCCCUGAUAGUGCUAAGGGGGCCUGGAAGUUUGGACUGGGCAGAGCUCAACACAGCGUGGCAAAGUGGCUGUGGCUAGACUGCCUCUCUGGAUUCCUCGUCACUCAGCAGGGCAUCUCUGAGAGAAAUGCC

- Variants of: B1
- method.description: self-cleavage, relative activity (ratio to wild type); higher = more cleavage; in vitro, sequencing; the parent is a self-cleaving ribozyme
Answers are plain numbers.

Solved cases below.
mutation.spec: A2U U15G
quantity: self-cleavage
obs.value: 0.51
//
mutation.spec: U9C U29A
quantity: self-cleavage
obs.value: 1.1
//
mutation.spec: U20G A141G
quantity: self-cleavage
obs.value: 0.87

Batch request: self-cleavage for each of the following variants.
1. U13C A43U
2. A64U U134A
3. U45A U119C
4. U26C A129G
5. C18A A69C
6. C18U U39C

A)
1.29
0.16
1.47
1.41
0.13
0.82

Batch request: self-cleavage for each of the following variants.
1. C28A G32C
2. U47C A121C

A)
1: 0.96; 2: 1.05
